Cited source for all entries: ChEMBL document CHEMBL5058577

Tested on: U2OS
EXPERIMENT DESCRIPTION: Multiplex assay against U2OS
Assay type: toxicity, cell-based
TEST CONTEXT: human, 12 h, 1 µM, compound concentration 1 uM, replicate 2
MEASUREMENT TYPE: Population Mitotic Cells (%)

MOLECULE	UNIT SYMBOL	MEASURED
N[C@](CC1c2ccccc2Oc2ccccc21)(C(=O)O)[C@H]1C[C@@H]1C(=O)O	%	27
CN1CCN2c3ccccc3Cc3ccccc3C2C1.Cl (centres undefined) [MIANSERIN HYDROCHLORIDE]	%	16
CC(C)C[C@H](CO)Nc1nc(S[C@@H](C)c2ccccc2)nc2nc(N)sc12	%	0
O=C(NCCNCC(O)COc1ccc(O)cc1)N1CCOCC1.O=C(NCCNCC(O)COc1ccc(O)cc1)N1CCOCC1.O=C(O)/C=C/C(=O)O (centres undefined) [XAMOTEROL FUMARATE]	%	16
Cn1cc(C(=O)OCC2CCN(CCNS(C)(=O)=O)CC2)c2ccccc21	%	22
O=C(O)CCC/C=C\CC1C(O)CC(O)C1/C=C/C(O)COc1cccc(Cl)c1 (centres undefined)	%	25
COCCn1c(C)c(C)s/c1=N\C(=O)C1C(C)(C)C1(C)C	%	28
COc1ccc2c(c1OCc1ccccc1)C[C@@H](C(=O)O)N(C(=O)C(c1ccccc1)c1ccccc1)C2	%	33
Cc1ccc(OCC(O)C(C)NC(C)C)c2c1CCC2.Cl (centres undefined)	%	9

###

Reported Total Cell Count values for a set of molecules
Tested on: Fibroblast
EXPERIMENT DESCRIPTION: Multiplex assay against human fibroblast
Assay type: toxicity, cell-based
TEST CONTEXT: 24 h, 10 µM, compound concentration 10 uM, replicate 1

MOLECULE	TARGET SYSTEM	Total Cell Count
CCCCC[C@H](O)/C=C/[C@H]1[C@H](O)CC(=O)[C@@H]1CCCCCCC(=O)O	Fibroblast	147
COc1ccc2c(c1OCc1ccccc1)C[C@@H](C(=O)O)N(C(=O)C(c1ccccc1)c1ccccc1)C2	Fibroblast	136
OCCCNc1cc(-c2ccnc(Nc3cccc(Cl)c3)n2)ccn1	Fibroblast	138
C=CCN1C[C@H](C(=O)N(CCCN(C)C)C(=O)NCC)C[C@@H]2c3cccc4[nH]cc(c34)C[C@H]21	Fibroblast	274
Nc1nc(-c2ccco2)c2cnn(Cc3ccccc3F)c2n1	Fibroblast	127
Cl.Cl.OCCOCCN1CCN(C(c2ccccc2)c2ccc(Cl)cc2)CC1 (configuration not stated) [HYDROXYZINE HYDROCHLORIDE]	Fibroblast	284
CN1CCN2c3ccccc3Cc3ccccc3C2C1.Cl (configuration not stated) [MIANSERIN HYDROCHLORIDE]	Fibroblast	120
CC(C)(C)c1ccc(CSc2cnn(C(C)(C)C)c(=O)c2Cl)cc1	Fibroblast	139
COc1cc(OC2CCN(C(C)=O)CC2)ccc1C(=O)N1CCC(N2C(=O)OCc3ccccc32)CC1	Fibroblast	172
COc1cc(Nc2ncc3c(n2)-c2ccc(Cl)cc2C(c2c(F)cccc2OC)=NC3)ccc1C(=O)O	Fibroblast	191
O=c1ccc2ccc(OCCCCN3CCN(c4cccc5sccc45)CC3)cc2[nH]1	Fibroblast	218
C[C@@H]1CC(=O)Nc2cccc(-c3ccc4c(c3)c(-c3cnn(C)c3)nn4C)c2N1	Fibroblast	158
CCc1nn2c(C)cc(C)nc2c1Cc1ccc(-c2nnc(C3CCNCC3)o2)cc1	Fibroblast	185
COCCCN1CCC(NC(=O)c2cc(Cl)c(N)c3c2OCC3)CC1 [PRUCALOPRIDE]	Fibroblast	128
Cn1cc(C(=O)OCC2CCN(CCNS(C)(=O)=O)CC2)c2ccccc21	Fibroblast	201
CN(C)C/C=C/C(=O)Nc1ccc(C(=O)N2CCCC(Nc3ncc(Cl)c(-c4c[nH]c5ccccc45)n3)C2)cc1 (configuration not stated)	Fibroblast	119
CN1C[C@H](C(=O)N[C@]2(C)O[C@@]3(O)[C@@H]4CCCN4C(=O)[C@H](Cc4ccccc4)N3C2=O)C[C@@H]2c3cccc4[nH]cc(c34)C[C@H]21.CS(=O)(=O)O [DIHYDROERGOTAMINE MESYLATE]	Fibroblast	89
